IC50 values, listed per item
- MEASURED TARGET: UniProt:Q02750
- Sequence (Q02750 whole entry): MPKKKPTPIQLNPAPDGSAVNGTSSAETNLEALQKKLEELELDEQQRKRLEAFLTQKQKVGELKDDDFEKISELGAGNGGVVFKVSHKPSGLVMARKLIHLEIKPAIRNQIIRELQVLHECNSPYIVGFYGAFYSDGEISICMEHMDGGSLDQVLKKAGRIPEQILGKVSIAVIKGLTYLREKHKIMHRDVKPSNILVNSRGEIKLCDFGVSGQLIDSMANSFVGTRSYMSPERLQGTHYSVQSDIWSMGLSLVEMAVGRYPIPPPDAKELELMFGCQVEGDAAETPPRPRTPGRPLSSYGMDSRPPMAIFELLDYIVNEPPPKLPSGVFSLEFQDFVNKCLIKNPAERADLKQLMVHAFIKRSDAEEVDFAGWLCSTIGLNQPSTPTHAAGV
Returns: string containing the number followed by the unit.

Past entries and their recorded results:
O=C(NOCC(O)CO)c1cc(/C=N\OCCO)c(F)c(F)c1Nc1ccc(I)cc1F (racemic) | 0.027 µM
CC(C)(O)CO/N=C\c1cc(C(=O)NOCCO)c(Nc2ccc(I)cc2F)c(F)c1F | 0.021 µM
O=C(NOCCO)c1cc(/C=N/OCc2cnc[nH]2)c(F)c(F)c1Nc1ccc(I)cc1F | 0.576 µM

# context switch: different compound, same IC50
IN: For UniProt:Q02750, provide IC50 of C#Cc1ccc(Nc2c(C(=O)NOCCO)cc(/C=N/OCCO)c(F)c2F)c(F)c1 please.
OUT: 0.24 µM
